- System: DMS-273
- procedure summary: NCI tumour cell line growth inhibition, 48 h
Active and inactive are the calls of the source. Rule as the data show it: active = GI50 up to about 1.1 µM and inactive = higher.
recorded endpoint: GI50

Reference set, count: 5
[O-][Cl+3]([O-])([O-])[O-].c1ccc(C[P+]2(c3ccccc3)CCCCC2)cc1	79.3 µM (inactive)
O=c1[nH]c(-c2ccccc2)nc2ccc(Cl)cc12	45.9 µM (inactive)
O=C1c2c(c3c4ccccc4[nH]c3c3[nH]c4ccccc4c23)C(=O)N1Cc1ccccc1	2.74 µM (inactive)
O/N=C1/CCC/C1=C\c1ccccc1	> 100 µM (inactive)
COCCCNC(=O)C1C(=O)N(CCCOC)C(=O)/C1=N\N (configuration not stated)	> 100 µM (inactive)

Parameter requested: GI50. Apply to each item below.
1. Cc1ccc(C)c(NC(=O)C(=O)C(C(=O)c2ccc3ccccc3c2)C2OC(=O)c3ccccc32)c1 (configuration not stated)
2. Cc1c(-c2nnc(-c3ccc(Cl)cc3)o2)c(=O)n(-c2ccccc2)n1C
3. COC(=O)C(=O)C(C(=O)C=C(C)C)C(=O)C(=O)Nc1ccc(Cl)cc1C (configuration not stated)
4. Oc1c2c(nc3cc4c(cc13)OCO4)-c1ccccc1CC2
5. CCCCCC/C=C1\CCC(CN2CCCC2)C1=O (configuration not stated)
6. CC(c1ccccc1)/[N+]([O-])=C/c1ccccc1 (configuration not stated)

Outgoing:
1. 3.87 µM (inactive)
2. > 100 µM (inactive)
3. 35.6 µM (inactive)
4. > 100 µM (inactive)
5. 12.7 µM (inactive)
6. > 100 µM (inactive)

Parameter requested: GI50. Apply to each item below.
1. COC1=C(C)C(=O)c2c(cc3c(c2O)C(C)(CCC=C(C)C)C(C)O3)C1=O (configuration not stated)
2. Nc1nc2c3c(ncn3CC(O)CO2)n1 (configuration not stated)
3. CC1(C)OC2CC3COC(=O)C3CC2O1 (configuration not stated)
4. CCN1C[C@]2(C)CC[C@H](O)C34C1C(C[C@@H]32)[C@@]1(O)CC[C@H]2C[C@@H]4[C@@H]1[C@H]2O
5. COc1ccc2c(-c3cc4ccccc4o3)cc(=O)oc2c1
6. Cc1nc(N2N=C(c3ccc(Cl)cc3)CCC2=O)sc1[N+](=O)[O-]
7. CC(=O)O/N=C/c1ncccc1CO
8. COc1cc(-c2nccc3cc(OC)c(OC)cc23)ccc1O

Outgoing:
> 57.1 µM (inactive)
> 100 µM (inactive)
> 100 µM (inactive)
> 100 µM (inactive)
61.8 µM (inactive)
> 100 µM (inactive)
> 100 µM (inactive)
43.5 µM (inactive)

Parameter requested: GI50. Apply to each item below.
1. CC(C)c1c2[nH]c3ccccc3c2c(C(C)C)c2[nH]c3ccccc3c12
2. O=C(CCN1CCCCC1CCO)Nc1ccc2c(c1)C(=O)c1ccc(NC(=O)CCN3CCCCC3CCO)cc1C2=O (configuration not stated)
3. O=C(O)c1cn2c3c(cc(N4CCN(CCO)CC4)cc3c1=O)SCC2

Outgoing:
["81.5 µM (inactive)", "2.83 µM (inactive)", "> 100 µM (inactive)"]
